- method_notes: NanoSPECT/CT imaging with image quantification
- Assay type: in vivo
- condition: female, NOD/SCID, mouse, tumor, iv, 2.5 ug, total radioactivity; 0.5 h after tail-vein injection (about 18.5 MBq, 2.5 μg); U-87 MG xenografts in mice; nanoSPECT/CT ROI
measurement_type: tissue uptake at 0.5 h (%ID/g)
Answer in %ID/g, number only, no unit symbol.

For N=C(N)NCCC[C@@H]1NC(=O)[C@H](CCCCNC(=O)CN2CCN(CC(=O)O)CCN(CC(=O)O)CCN(CC(=O)O)CC2)NC(=O)[C@@H](Cc2ccccc2)NC(=O)[C@H](CC(=O)O)NC(=O)CNC1=O [^111In-DOTA-cRGDfK, metal not drawn] the compound record lists tissue uptake at 0.5 h as 2
